Below: a set of entries, each annotated with reported self-aminoacylation.
- System: biotinyl-Ile-oxazolone
- experiment-notes: self-aminoacylation, catalytic enhancement (BIO) (fold over background); higher = more active; k-Seq, kA / k0A0; sequences stand for … in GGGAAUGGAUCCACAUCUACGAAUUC…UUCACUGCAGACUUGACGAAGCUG
Variants at the floor of the assay were thinned out.
Respond numerically, and do not add a unit to the figure.

Examples with their reported self-aminoacylation follow.
seq="AUUCACCUAGGUAAUAGGGUG [Fam2.2 aminoacylation ribozyme variant]" observed_value=2.7
seq="AAGUUUGCUAAUAGUCGCGGG [Fam3.1 aminoacylation ribozyme variant]" observed_value=4.43

self-aminoacylation measured on CCACACUUGAAGCCAUCGGUC [Fam1B.1 aminoacylation ribozyme variant] = 1.24

self-aminoacylation measured on AAGUUUGCUAAUAGUCGAAAG [Fam3.1 aminoacylation ribozyme variant] = 1.38

self-aminoacylation measured on CCGCACUUCAAGCAAUCGGUG [Fam1B.1 aminoacylation ribozyme variant] = 5.07

self-aminoacylation measured on AUUACCCUGGUCAUCGAAUUA [Fam2.1 aminoacylation ribozyme variant] = 1.26

self-aminoacylation measured on CUACUUCAAACAAACGGUCGG [Fam1A.1 aminoacylation ribozyme variant] = 1.05

self-aminoacylation measured on AAGUUUGCUAAUAGUCAGAAG [Fam3.1 aminoacylation ribozyme variant] = 0.943

self-aminoacylation measured on AAGUGUGCUAAGAGUCGCAAG [Fam3.1 aminoacylation ribozyme variant] = 1.11
